The reported measurements were obtained from ChEMBL document CHEMBL1123302.

- Assay System: Metabotropic glutamate receptor 3 (Rattus norvegicus)
- Protocol Details: Antagonistic activity against Glutamate receptor in rat spinal cord at concentration of 10 uM.
- Format: functional, tissue-based
// reported Change in amplitude response per item
Field: numeric (%). Do not append units.

# example entries with known answers
Compound	Change in amplitude response [%]
COC(=O)[C@H](CCSC)NC(=O)[C@H](CC(C)C)NC(=O)[C@@H](Cc1c[nH]c2ccccc12)NC(=O)[C@H](Cc1ccccc1)NC(=O)[C@@H](Cc1ccccc1)NC(=O)[C@H](CCCN=C(N)N)NC(=O)[C@H](CC(N)=O)NC(=O)OC(C)(C)C	-3
COC(=O)[C@H](CCSC)NC(=O)[C@H](CC(C)C)NC(=O)[C@@H](Cc1c[nH]c2ccccc12)NC(=O)[C@H](Cc1ccccc1)NC(=O)[C@@H](Cc1ccccc1)NC(=O)[C@H](CCCN=C(N)N)NC(=O)[C@H](CC(N)=O)NC(=O)C1CCCN1C(=O)[C@H](CCCCNC(=O)OCc1ccccc1)NC(=O)C1CCCN1C(=O)[C@H](CCCN=C(N)N)NC(=O)OCc1ccccc1 (stereo in doubt)	-1
COC(=O)[C@@H](CCSC)NC(=O)[C@H](CC(C)C)NC(=O)CNC(=O)[C@@H](Cc1c[nH]c2ccccc12)NC(=O)[C@@H](Cc1c[nH]c2ccccc12)NC(=O)[C@H](CCC(N)=O)NC(=O)[C@H](CCC(N)=O)NC(=O)[C@@H]1CCCN1C(=O)[C@H](CCCCNC(=O)OCc1ccccc1)NC(=O)[C@@H]1CCCN1C(=O)[C@H](CCCN=C(N)N)NC(=O)OCc1ccccc1	-3

// below: Change in amplitude response requested for another compound
Input line: Field request: Change in amplitude response | item: COC(=O)[C@H](CCSC)NC(=O)[C@H](CC(C)C)NC(=O)[C@@H](Cc1c[nH]c2ccccc12)NC(=O)[C@H](Cc1ccccc1)NC(=O)[C@@H](Cc1ccccc1)NC(=O)[C@H](CCCCN)NC(=O)[C@H](CC(N)=O)NC(=O)C1CCCN1C(=O)[C@H](CCCCN)NC(=O)C1CCCN1C(=O)[C@@H](N)CCCN=C(N)N (stereo in doubt)
Output line: 8

====

- Assay System: Substance-P receptor (Rattus norvegicus) (UniProt P14600)
- Sequence (P14600 whole entry, looked up): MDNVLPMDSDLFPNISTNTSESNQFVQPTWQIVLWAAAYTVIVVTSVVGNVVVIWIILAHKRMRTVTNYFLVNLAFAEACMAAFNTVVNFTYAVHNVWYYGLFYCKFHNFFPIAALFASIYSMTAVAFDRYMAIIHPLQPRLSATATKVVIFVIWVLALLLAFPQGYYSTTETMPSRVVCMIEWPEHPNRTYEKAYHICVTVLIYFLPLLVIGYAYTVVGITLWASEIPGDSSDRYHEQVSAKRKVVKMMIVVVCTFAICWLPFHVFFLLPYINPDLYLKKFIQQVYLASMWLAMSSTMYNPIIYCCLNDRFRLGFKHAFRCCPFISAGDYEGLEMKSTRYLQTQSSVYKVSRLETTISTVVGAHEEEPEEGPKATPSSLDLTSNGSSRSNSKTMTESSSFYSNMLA
- Protocol Details: Antagonistic activity against Substance P(6-11) receptor in rat spinal cord at concentration of 50 uM.
Measurement Kind: Change in amplitude response (%)

Compound	Change in amplitude response, %
COC(=O)[C@@H](CCSC)NC(=O)[C@H](CC(C)C)NC(=O)CNC(=O)[C@@H](Cc1c[nH]c2ccccc12)NC(=O)[C@@H](Cc1c[nH]c2ccccc12)NC(=O)[C@H](CCC(N)=O)NC(=O)[C@H](CCC(N)=O)NC(=O)[C@@H]1CCCN1C(=O)[C@H](CCCCNC(=O)OCc1ccccc1)NC(=O)[C@@H]1CCCN1C(=O)[C@H](CCCN=C(N)N)NC(=O)OCc1ccccc1	-75
COC(=O)[C@H](CCSC)NC(=O)[C@H](CC(C)C)NC(=O)[C@@H](Cc1c[nH]c2ccccc12)NC(=O)[C@H](Cc1ccccc1)NC(=O)[C@@H](Cc1ccccc1)NC(=O)[C@H](CCCN=C(N)N)NC(=O)[C@H](CC(N)=O)NC(=O)OC(C)(C)C	-79
COC(=O)[C@@H](CCSC)NC(=O)[C@H](CC(C)C)SCCNC(=O)[C@H](Cc1ccccc1)NC(=O)[C@@H](Cc1ccccc1)NC(=O)[C@H](CCC(N)=O)NC(=O)[C@H](CCC(N)=O)NC(=O)C1CCCN1C(=O)OC(C)(C)C (stereo in doubt)	-74
COC(=O)[C@@H](CCSC)NC(=O)C(CC(C)C)SCCNC(=O)[C@H](Cc1ccccc1)NC(=O)[C@@H](Cc1ccccc1)NC(=O)[C@H](CCC(N)=O)NC(=O)[C@H](CCC(N)=O)NC(=O)C1CCCN1C(=O)OC(C)(C)C (stereo in doubt)	-80
COC(=O)[C@@H](CCSC)NC(=O)[C@H](CC(C)C)NC(=O)CN(C)C(=O)[C@H](Cc1ccccc1)NC(=O)[C@@H](Cc1ccccc1)NC(=O)[C@H](CCC(N)=O)NC(=O)[C@H](CCC(N)=O)NC(=O)C1CCCN1C(=O)OC(C)(C)C (stereo in doubt)	-57
COC(=O)[C@H](CCSC)NC(=O)[C@H](CC(C)C)NC(=O)[C@@H](Cc1c[nH]c2ccccc12)NC(=O)[C@H](Cc1ccccc1)NC(=O)[C@@H](Cc1ccccc1)NC(=O)[C@H](CCCN=C(N)N)NC(=O)[C@H](CC(N)=O)NC(=O)C1CCCN1C(=O)[C@H](CCCCNC(=O)OCc1ccccc1)NC(=O)C1CCCN1C(=O)[C@H](CCCN=C(N)N)NC(=O)OCc1ccccc1 (stereo in doubt)	-85
